protocol notes: Compound was tested for anticonvulsant activity in male mice using maximal electric shock seizure test.; Protective index = TD50/ED50
Format: ADME
particulars: mouse, read-out: PI
measured metric: selectivity ratio
Answers are plain numbers.

Ask | // selectivity ratio lookup, key: `CN1C(=O)CC[C@@H](NC(=O)OCc2ccccc2)C1=O`
Reply | 2.5

----------
So I've got a bunch of molecules here, and I need their selectivity ratio values.
protocol notes: Compound was tested for anticonvulsant activity in male mice using maximal electric shock seizure test; Protective index = TD50/ED50
Assay type: ADME
particulars: mouse, read-out: PI
Answers are plain numbers.

Worked cases, selectivity ratio given:
CN1C(=O)CC(C)(c2ccccc2)C1=O (centres undefined) [METHSUXIMIDE] | 3.1
O=C1CC[C@@H](NC(=O)OCc2ccccc2)C(=O)N1 | 2.2

Below is a list of molecules. For each, state its recorded selectivity ratio.
1. CN1C(=O)C[C@H](NC(=O)OCc2ccccc2)C1=O
2. CN1C(=O)OC(C)(C)C1=O [TRIMETHADIONE]
3. O=C1C[C@@H](NC(=O)OCc2ccccc2)C(=O)N1
4. O=C1C[C@H](NC(=O)OCc2ccccc2)C(=O)N1
5. CN1C(=O)CC[C@H](NC(=O)OCc2ccccc2)C1=O
6. O=C1CC[C@H](NC(=O)OCc2ccccc2)C(=O)N1
7. CN1C(=O)C[C@@H](NC(=O)OCc2ccccc2)C1=O

Reply |
1. 1.9
2. 1.5
3. 1.4
4. 1.6
5. 1.7
6. 3
7. 3.2

Data provenance: ChEMBL document CHEMBL1129697
